- MEASURED_TARGET: MMP-1 (Homo sapiens, UniProt P03956)
- Sequence (P03956 100-469): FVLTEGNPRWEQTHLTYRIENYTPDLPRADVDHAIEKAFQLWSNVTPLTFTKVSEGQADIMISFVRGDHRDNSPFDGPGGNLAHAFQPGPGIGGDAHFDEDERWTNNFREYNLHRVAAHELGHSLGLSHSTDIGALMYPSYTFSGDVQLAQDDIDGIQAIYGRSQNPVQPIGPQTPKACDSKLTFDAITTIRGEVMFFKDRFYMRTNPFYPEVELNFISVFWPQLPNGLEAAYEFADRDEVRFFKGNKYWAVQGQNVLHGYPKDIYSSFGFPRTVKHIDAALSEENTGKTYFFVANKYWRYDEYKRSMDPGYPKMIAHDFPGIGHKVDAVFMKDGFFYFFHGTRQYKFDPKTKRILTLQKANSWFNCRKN
- ASSAY_COMMENT: MMP inhibition fluorometric assay, MMP-1
- CONDITION_INFO: experimental binding energy from activity data; racemic mixture tested
PROPERTY_MEASURED: ΔG exp MMP-1 (kcal)
Please respond with the number in kcal and leave the unit unwritten.

// fetch ΔG exp MMP-1 given entry O=S(=O)(N[C@H](CO)CS)c1ccc(Oc2ccccc2)cc1 (racemic) [25d R]
-4.224

// fetch ΔG exp MMP-1 given entry O=S(=O)(NC(CO)CO)c1ccc(Oc2ccccc2)cc1 [Compound 25a]
-4.074

// fetch ΔG exp MMP-1 given entry Cl.O=S(=O)(N[C@@H](CO)Cc1c[nH]cn1)c1ccc(Oc2ccccc2)cc1 (racemic) [25e R]
-4.524

// fetch ΔG exp MMP-1 given entry O=S(=O)(N[C@@H](CO)CS)c1ccc(Oc2ccccc2)cc1 [25d S]
-4.224

// fetch ΔG exp MMP-1 given entry Cl.O=S(=O)(N[C@H](CO)Cc1c[nH]cn1)c1ccc(Oc2ccccc2)cc1 [25e S]
-4.524

====

For each record, write down the corresponding ΔG exp (binding energy toward MMP-2).
- MEASURED_TARGET: MMP-2 (Homo sapiens)
- Sequence (P08253 110-660): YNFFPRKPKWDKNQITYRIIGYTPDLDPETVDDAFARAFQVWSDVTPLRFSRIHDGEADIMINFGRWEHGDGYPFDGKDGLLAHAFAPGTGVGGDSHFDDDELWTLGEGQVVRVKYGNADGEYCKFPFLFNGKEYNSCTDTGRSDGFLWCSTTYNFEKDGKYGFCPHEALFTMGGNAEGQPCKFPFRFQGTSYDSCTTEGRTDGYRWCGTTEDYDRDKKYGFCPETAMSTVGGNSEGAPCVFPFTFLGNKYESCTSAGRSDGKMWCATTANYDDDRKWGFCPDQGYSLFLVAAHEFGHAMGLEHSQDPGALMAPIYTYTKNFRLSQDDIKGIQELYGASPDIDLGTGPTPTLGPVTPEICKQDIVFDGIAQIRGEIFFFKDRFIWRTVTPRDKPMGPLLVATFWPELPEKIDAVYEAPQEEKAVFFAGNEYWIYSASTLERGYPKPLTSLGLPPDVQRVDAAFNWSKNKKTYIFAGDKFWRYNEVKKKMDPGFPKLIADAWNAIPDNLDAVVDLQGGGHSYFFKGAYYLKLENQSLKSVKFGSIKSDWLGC
- CONDITION_INFO: experimental binding energy from activity data; chiral compounds tested as racemic mixture
Please respond with the number in kcal and leave the unit unwritten.

Supply ΔG exp (binding energy toward MMP-2) measured with MMP-2 (Homo sapiens) for O=S(=O)(N[C@@H](CO)CS)c1ccc(Oc2ccccc2)cc1 [25d S] .
-5.396

Supply ΔG exp (binding energy toward MMP-2) measured with MMP-2 (Homo sapiens) for Cl.O=S(=O)(N[C@@H](CO)Cc1c[nH]cn1)c1ccc(Oc2ccccc2)cc1 (racemic) [25e R] .
-5.069

Supply ΔG exp (binding energy toward MMP-2) measured with MMP-2 (Homo sapiens) for N[C@@H](CO)CS.O=C(O)C(F)(F)F .
-4.319

Supply ΔG exp (binding energy toward MMP-2) measured with MMP-2 (Homo sapiens) for O=C(O)C(F)(F)F.O=C(O)C(F)(F)F.[N-]=[N+]=NC[C@H](N)Cc1c[nH]cn1 .
-4.524

Supply ΔG exp (binding energy toward MMP-2) measured with MMP-2 (Homo sapiens) for N#CC[C@H](N)CS.O=C(O)C(F)(F)F .
-4.497

Supply ΔG exp (binding energy toward MMP-2) measured with MMP-2 (Homo sapiens) for O=S(=O)(N[C@H](CO)CS)c1ccc(Oc2ccccc2)cc1 (racemic) [25d R] .
-5.396

Supply ΔG exp (binding energy toward MMP-2) measured with MMP-2 (Homo sapiens) for N[C@@H](CO)Cc1c[nH]cn1.O=C(O)C(F)(F)F.O=C(O)C(F)(F)F .
-4.565

Supply ΔG exp (binding energy toward MMP-2) measured with MMP-2 (Homo sapiens) for N#CC[C@@H](N)CO.O=C(O)C(F)(F)F .
-4.210

Supply ΔG exp (binding energy toward MMP-2) measured with MMP-2 (Homo sapiens) for Cl.O=S(=O)(N[C@H](CO)Cc1c[nH]cn1)c1ccc(Oc2ccccc2)cc1 [25e S] .
-5.069

Supply ΔG exp (binding energy toward MMP-2) measured with MMP-2 (Homo sapiens) for O=S(=O)(NC(CO)CO)c1ccc(Oc2ccccc2)cc1 [Compound 25a] .
-5.655
